Source: paper PMC11994318

- experimental_target: T1, ΔN-Dhr1-ΔSKTTD (Saccharomyces cerevisiae, UniProt Q04217 376-665+671-1267, internal_change)
- T1 sequence: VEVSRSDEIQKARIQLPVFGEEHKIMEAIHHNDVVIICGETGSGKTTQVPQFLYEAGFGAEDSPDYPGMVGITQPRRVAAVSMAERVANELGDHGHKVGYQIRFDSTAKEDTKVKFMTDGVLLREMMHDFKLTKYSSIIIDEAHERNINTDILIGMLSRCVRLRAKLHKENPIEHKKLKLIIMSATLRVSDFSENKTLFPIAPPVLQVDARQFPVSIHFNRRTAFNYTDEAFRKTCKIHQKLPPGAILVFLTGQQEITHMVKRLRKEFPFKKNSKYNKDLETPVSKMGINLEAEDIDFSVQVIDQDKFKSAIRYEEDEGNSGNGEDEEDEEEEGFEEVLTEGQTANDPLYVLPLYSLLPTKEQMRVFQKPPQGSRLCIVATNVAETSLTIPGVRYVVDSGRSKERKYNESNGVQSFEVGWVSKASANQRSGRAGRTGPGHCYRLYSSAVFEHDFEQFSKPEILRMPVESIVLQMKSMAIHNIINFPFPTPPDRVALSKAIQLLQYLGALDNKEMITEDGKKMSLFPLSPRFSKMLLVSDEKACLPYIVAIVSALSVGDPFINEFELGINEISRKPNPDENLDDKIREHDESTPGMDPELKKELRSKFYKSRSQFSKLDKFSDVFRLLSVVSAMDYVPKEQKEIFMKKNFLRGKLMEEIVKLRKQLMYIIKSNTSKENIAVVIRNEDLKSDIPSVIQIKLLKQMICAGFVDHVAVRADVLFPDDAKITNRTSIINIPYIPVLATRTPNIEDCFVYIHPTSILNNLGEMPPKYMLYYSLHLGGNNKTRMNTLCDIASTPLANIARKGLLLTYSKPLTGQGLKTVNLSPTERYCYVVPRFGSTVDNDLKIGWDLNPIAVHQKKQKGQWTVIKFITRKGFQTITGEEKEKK
- procedure_text: fluorescence polarization; no nucleotide; 10 mM Mg2+; 40 mM Tris-HCl pH 8.0, 40 mM KCl, 150 mM NaCl, 2 mM NaOAc, 2 mM DTT, 10 mM MgCl2, 4% glycerol, 0.05% Tween 20, 25 °C, 10 min; 1.25 nM RNA, 0.625 nM-20 µM protein
- settings: protein: recombinant; tags: C-terminal His6 (pET21a); label: 5' 6-FAM; single strand
readout_name: pKd
Reminder that pKd means the negative base-10 logarithm of the concentration expressed in mol/L.

For UUUUUUUUUUUUUUUUUUUU (ssRNA) [U20] the binder record lists pKd as 7.22
